Molecular target: T1, M2-1 (human respiratory syncytial virus …, UniProt P04545 1-194)
T1 sequence: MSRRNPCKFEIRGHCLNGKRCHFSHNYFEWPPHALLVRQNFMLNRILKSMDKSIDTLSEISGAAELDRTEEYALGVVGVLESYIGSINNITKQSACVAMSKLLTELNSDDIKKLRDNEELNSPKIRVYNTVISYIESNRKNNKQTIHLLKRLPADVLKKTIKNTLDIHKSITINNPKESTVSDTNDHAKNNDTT
Assay: SEC; excess RNA; EMSA: 20 mM HEPES pH 7.5, 200 mM NaCl, 2 mM TCEP, 5% glycerol, room temperature 1 h, 4% native PAGE, SYBR Gold; SEC: Superdex 200 Increase 10/300, buffer not given
Conditions: protein: recombinant; tags: N-terminal His6-GFP, cleaved with TEV; chain copies: 4
PROPERTY MEASURED: binding result

{"columns": ["BINDER", "VALUE OBSERVED"],
 "data": [
  ["CUAUUUUUAAUUAACU (ssRNA) [SH16(-)]", "no binding"],
  ["UUUUUUUUUUUUUUUU (ssRNA) [Poly16U]", "no binding"],
  ["AAAAAAAAAAAAAAAA (ssRNA) [Poly16A]", "binds"],
  ["AGUUAAUUAAAAAUAG (ssRNA) [SH16(+)]", "binds"],
  ["UUUUUUUUUUUUUUUUUUUUU (ssRNA) [Poly21U]", "binds"],
  ["UUUUUUUUUUUUUUUUUUUUUUUUUUUU (ssRNA) [Poly28U]", "binds"],
  ["CCCCCCCCCCCCCCCC (ssRNA) [Poly16C]", "no binding"]
]}
